Exercise: state measured spectral intensity of the compound in the SEC spin column filtrate (protein fraction) for each of the compounds provided.
tgt: FLJ39196 clone-derived protein (human neurocalcin δ) (Homo sapiens, UniProt P61601)
Construct: A human full-length cDNA clone was expressed as a protein with an N-terminal His tag; His tag (N); made in house; host or cells: Escherichia coli BL21star(DE3)pLysS (pDEST17 Gateway expression plasmid)
experiment: SEC/MS interaction analysis (size exclusion spin column and mass analysis) with FLJ39196 clone-derived protein
Type: binding
condition details: protein 0 μM (protein-free reference), compound 10 μM
Where a name gives a salt, the structure may show the parent alone.
# respond with the number and nothing more

The compound identified as CC(NCCC(c1ccccc1)c1ccccc1)c1ccccc1 (stereo not shown) registered its spectral intensity of the compound in the SEC spin column filtrate (protein fraction) at 21106520

Record OCCN1CCN(CC/C=C2/c3ccccc3Sc3ccc(C(F)(F)F)cc32)CC1 [Flupentixol cis-(Z)] . Reported spectral intensity of the compound in the SEC spin column filtrate (protein fraction): 59201705

// spectral intensity of the compound in the SEC spin column filtrate (protein fraction) lookup, compound = O=C1CN=C(c2ccccc2)c2cc(Cl)ccc2N1CC1CC1 , result: 21988256

Lab book: spectral intensity of the compound in the SEC spin column filtrate (protein fraction) of CC(C)COCC(CN(Cc1ccccc1)c1ccccc1)N1CCCC1 (stereo not shown) noted as 14048756

Value of spectral intensity of the compound in the SEC spin column filtrate (protein fraction) reported for the compound CCc1cc2c(s1)N(C)C(=O)CN=C2c1ccccc1Cl is 19826757

The measured spectral intensity of the compound in the SEC spin column filtrate (protein fraction) associated with COC(=O)[C@H]1[C@H]2C[C@@H]3c4[nH]c5cc(OC)ccc5c4CCN3C[C@H]2C[C@@H](OC(=O)/C=C/c2cc(OC)c(OC)c(OC)c2)[C@@H]1OC reads 6544896

spectral intensity of the compound in the SEC spin column filtrate (protein fraction) recorded for this compound, CCOC(=O)Oc1c(OC)cc(C(=O)O[C@@H]2C[C@@H]3CN4CCc5c([nH]c6cc(OC)ccc56)[C@H]4C[C@@H]3[C@H](C(=O)OC)[C@H]2OC)cc1OC , is 47209784

// CC(O)(CS(=O)(=O)c1ccc(F)cc1)C(=O)Nc1ccc(C#N)c(C(F)(F)F)c1 (stereo not shown) [Bicaltamide] : spectral intensity of the compound in the SEC spin column filtrate (protein fraction) value = 269681

According to the records, this compound CN(C)CC/C=C1/c2ccccc2Sc2ccc(Cl)cc21 displays spectral intensity of the compound in the SEC spin column filtrate (protein fraction) of 15368592

Given item CC(C)[C@@]1(NC(=O)[C@@H]2C[C@@H]3c4cccc5[nH]cc(c45)C[C@H]3N(C)C2)O[C@@]2(O)[C@@H]3CCCN3C(=O)[C@H](Cc3ccccc3)N2C1=O [Dihydroergocristine] , the value recorded as its spectral intensity of the compound in the SEC spin column filtrate (protein fraction) is 10810305

Quick note, spectral intensity of the compound in the SEC spin column filtrate (protein fraction) for Clc1ccc(C(OCCN2CCCCC2)c2ccccc2)cc1 (stereo not shown) landed at 13165487

The value of spectral intensity of the compound in the SEC spin column filtrate (protein fraction) measured for the compound CN1CCN(CCCN2c3ccccc3Sc3ccc(C(F)(F)F)cc32)CC1 turned out to be 7904072

Record summary for CCCCCCCCNC(C)C(O)c1ccc(SC(C)C)cc1 (stereo not shown) : reported spectral intensity of the compound in the SEC spin column filtrate (protein fraction) = 3684060

// O=C(c1ccc(OCCN2CCCCC2)cc1)c1c(-c2ccc(O)cc2)sc2cc(O)ccc12 [Raloxifene hydrochloride] : spectral intensity of the compound in the SEC spin column filtrate (protein fraction) value = 2330594

The measured spectral intensity of the compound in the SEC spin column filtrate (protein fraction) associated with Cc1cc(-c2ccccc2)nnc1NCCN1CCOCC1 reads 95722839

GET /value?item= NS(=O)(=O)c1cc2c(cc1Cl)N=C(CSCc1ccccc1)NS2(=O)=O [Benzthiazide] &field=spectral intensity of the compound in the SEC spin column filtrate (protein fraction) returns 505597
